system: VDR homodimer (NR concentration 270 nM); experiment: PBM binding z-score (relative to random genomic background probes); higher = stronger binding; sequences stand for … in GC…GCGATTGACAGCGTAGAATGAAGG
Decide using PBM binding z-score: a value greater than or equal to 1 is 1, a smaller one is 0.

# biopolymerSequence, labelValue
data = [
    ("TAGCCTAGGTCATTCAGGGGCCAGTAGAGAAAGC", 1),
    ("CGAACGAGGCCATGAGTTGATAGCAAATGCCGAT", 0),
    ("CAACCTAGGTCAAAGGTCAAAGTCGAGCCAACCA", 1),
    ("TGAATGAGGTTATATGATCAGGGAACGTTGCAAA", 0),
    ("CCTTACGGGTCACGAGGTTATAGCCCGACGAGCG", 1),
    ("AGAACGAGGGCACGCTGAGTTGCTAGCAGAGTAG", 1),
    ("TCATTTAGGTAATACAGGTGAAAGTCGGCATCTA", 0),
]
